Hey, just so you know, these numbers are from PubChem BioAssay AID1963875.

- Test system: KRAS-mutant PDC complex spheroid viability
- TEST: Anticancer human tumor 186277-243-T-J2-PDC patient-derived colon adenocarcinoma cell line growth inhibition [KRAS2]
- TEST SETTINGS: curve of first compound; second compound 0.1 µM
IC50 overview

Completed entries (count: 5):
COMPOUND	TARGET DESC	IC50
CCN1CCN(Cc2ccc(Nc3ncc(F)c(-c4cc(F)c5nc(C)n(C(C)C)c5c4)n3)nc2)CC1 + C=CC(=O)N1CCN(c2nc(=O)n(-c3c(C)ccnc3C(C)C)c3nc(-c4c(O)cccc4F)c(F)cc23)C(C)C1	KRAS-mutant PDC complex spheroid viability	> 1000 nM
CC(=O)OC12COC1CC(O)C1(C)C(=O)C(O)C3=C(C)C(OC(=O)C(O)C(NC(=O)OC(C)(C)C)c4ccccc4)CC(O)(C(OC(=O)c4ccccc4)C21)C3(C)C (stereo not drawn) + C=CC(=O)N1CCN(c2nc(=O)n(-c3c(C)ccnc3C(C)C)c3nc(-c4c(O)cccc4F)c(F)cc23)C(C)C1	KRAS-mutant PDC complex spheroid viability	< 10 nM
COc1cc(Nc2ncc3c(n2)-c2ccc(Cl)cc2C(c2c(F)cccc2OC)=NC3)ccc1C(=O)O + COc1cc2nc(C)nc(NC(C)c3cc(N)cc(C(F)(F)F)c3)c2cc1OC1CCOC1	KRAS-mutant PDC complex spheroid viability	< 31.6 nM
CN(C)C/C=C/C(=O)Nc1cc2c(Nc3ccc(F)c(Cl)c3)ncnc2cc1O[C@H]1CCOC1 + COc1cc2nc(C)nc(NC(C)c3cc(N)cc(C(F)(F)F)c3)c2cc1OC1CCOC1	KRAS-mutant PDC complex spheroid viability	> 100 nM
CCN1CCN(Cc2ccc(Nc3ncc(F)c(-c4cc(F)c5nc(C)n(C(C)C)c5c4)n3)nc2)CC1 + CNCc1ccccc1-c1csc(C(C)Nc2nc(C)nc3cc(OC)c(OC)cc23)c1	KRAS-mutant PDC complex spheroid viability	> 1000 nM

Please look up its IC50: COc1cc(Nc2ncc3c(n2)-c2ccc(Cl)cc2C(c2c(F)cccc2OC)=NC3)ccc1C(=O)O + CC1OCC2(CCN(c3cnc(Sc4ccnc(N)c4Cl)c(N)n3)CC2)C1N
< 31.6 nM

Please look up its IC50: CC1OCC2(CCN(c3cnc(Sc4ccnc(N)c4Cl)c(N)n3)CC2)C1N (stereo not drawn) + C=CC(=O)N1CCN(c2nc(OCC3CCCN3C)nc3c2CCN(c2cccc4cccc(C)c24)C3)CC1CC#N
> 10000 nM

Please look up its IC50: CCNC(=O)CC1N=C(c2ccc(Cl)cc2)c2cc(OC)ccc2-n2c(C)nnc21 (stereo not drawn) + CNCc1ccccc1-c1csc(C(C)Nc2nc(C)nc3cc(OC)c(OC)cc23)c1
> 10000 nM

###

- Test system: KRAS-mutant PDC complex spheroid viability
- TEST: Anticancer human tumor 186277-243-T-J2-PDC cell line growth inhibition [KRAS2];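 on viability, T/C: viability read after seven days of compound exposure; 100% = DMSO vehicle-treated spheroids so lower means less viable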
- TEST SETTINGS: second compound 1 µM; first compound 1 µM; stronger effect = lower value
viability, T/C overview

Completed entries (count: 6):
COMPOUND	TARGET DESC	viability, T/C
Cn1nccc1Nc1nccc(-c2cc3c(s2)C(C)(C)N(CCN2CCOCC2)C3=O)n1 + CNCc1ccccc1-c1csc(C(C)Nc2nc(C)nc3cc(OC)c(OC)cc23)c1	KRAS-mutant PDC complex spheroid viability	4.12%
CC1(C)CCC(CN2CCN(c3ccc(C(=O)NS(=O)(=O)c4ccc(NCC5CCOCC5)c([N+](=O)[O-])c4)c(Oc4cnc5[nH]ccc5c4)c3)CC2)=C(c2ccc(Cl)cc2)C1 + C=CC(=O)N1CCN(c2nc(OCC3CCCN3C)nc3c2CCN(c2cccc4cccc(C)c24)C3)CC1CC#N	KRAS-mutant PDC complex spheroid viability	98.2%
O=C(c1cc(Cc2n[nH]c(=O)c3ccccc23)ccc1F)N1CCN(C(=O)C2CC2)CC1 + C=CC(=O)N1CCN(c2nc(OCC3CCCN3C)nc3c2CCN(c2cccc4cccc(C)c24)C3)CC1CC#N	KRAS-mutant PDC complex spheroid viability	107%
COc1cc2nccc(Oc3ccc(NC(=O)C4(C(=O)Nc5ccc(F)cc5)CC4)cc3)c2cc1OC + COc1cc2nc(C)nc(NC(C)c3cc(N)cc(C(F)(F)F)c3)c2cc1OC1CCOC1	KRAS-mutant PDC complex spheroid viability	11.3%
CC(C)NCC(C(=O)N1CCN(c2ncnc3c2C(C)CC3O)CC1)c1ccc(Cl)cc1 (configuration not stated) + CC1OCC2(CCN(c3cnc(Sc4ccnc(N)c4Cl)c(N)n3)CC2)C1N	KRAS-mutant PDC complex spheroid viability	16%
COC(=O)c1ccc2c(C(=Nc3ccc(N(C)C(=O)CN4CCN(C)CC4)cc3)c3ccccc3)c(O)[nH]c2c1 + CNCc1ccccc1-c1csc(C(C)Nc2nc(C)nc3cc(OC)c(OC)cc23)c1	KRAS-mutant PDC complex spheroid viability	30.5%

Query compound follows.
Please look up its viability, T/C: COc1cc2nccc(Oc3ccc(NC(=O)C4(C(=O)Nc5ccc(F)cc5)CC4)cc3)c2cc1OC + CNCc1ccccc1-c1csc(C(C)Nc2nc(C)nc3cc(OC)c(OC)cc23)c1
85.7%
